Origin of the recorded values: ChEMBL document CHEMBL1212869

tested on: Human immunodeficiency virus 1; test: Antiviral activity against HIV1 3B infected in human MT4 cells assessed as inhibition of virus-induced cytopathic effect after 4 days by MTT assay; type: functional, organism-based; settings: Human immunodeficiency virus 1, 3B, MT4, 96 h
pIC50: −log10 of the molar value.
Response key: label 1 means pIC50 >= 4; label 0 means pIC50 < 4.

Nc1ccc2oc(-c3cccc(F)c3)cc(=O)c2c1; label 1
CC(=O)Nc1ccc(O)c(C(=O)/C=C/c2ccc(C(F)(F)F)cc2)c1; label 1
COc1ccc(-c2oc3ccc(NC(C)=O)cc3c(=O)c2OC)cc1; label 0

Query: Given "CC(=O)Nc1ccc2oc(-c3ccccc3)cc(=O)c2c1" , state whether its pIC50 is at least 4.
Reply: label 0

Query: Given "Nc1ccc2oc(-c3ccccc3)c(O)c(=O)c2c1" , state whether its pIC50 is at least 4.
Reply: label 0

Query: Given "CC(=O)Nc1ccc2oc(-c3ccc(F)cc3)c(O)c(=O)c2c1" , state whether its pIC50 is at least 4.
Reply: label 1

Query: Given "CC(=O)Nc1ccc2oc(-c3ccc(C(F)(F)F)cc3)cc(=O)c2c1" , state whether its pIC50 is at least 4.
Reply: label 0

Query: Given "COc1ccc(-c2cc(=O)c3cc(N)ccc3o2)cc1" , state whether its pIC50 is at least 4.
Reply: label 0

Query: Given "COc1ccc(-c2oc3ccc(N)cc3c(=O)c2OC)cc1" , state whether its pIC50 is at least 4.
Reply: label 0

Query: Given "Nc1ccc2oc(-c3cccc(C(F)(F)F)c3)cc(=O)c2c1" , state whether its pIC50 is at least 4.
Reply: label 0

* * *

A collection of compounds and their measured log10(CC50 at 96 h)
test: Cytotoxicity against human MT4 cells after 4 days by MTT assay; assay type: cell-based
Plainly stated, the numbers are log10 of CC50 at 96 h given in µM.

As a guide, the following entries are already answered.
Nc1ccc2oc(-c3ccc(F)cc3)cc(=O)c2c1; 2.42
CC(=O)Nc1ccc2oc(-c3ccc(C(F)(F)F)cc3)c(O)c(=O)c2c1; 0.86
COc1ccccc1-c1oc2ccc(NC(C)=O)cc2c(=O)c1OC; 2.19
Nc1ccc2oc(-c3ccc(F)cc3)c(O)c(=O)c2c1; 1.97
COc1ccc(-c2cc(=O)c3cc(N)ccc3o2)cc1; 2.38
CC(=O)Nc1ccc(O)c(C(=O)/C=C/c2ccc(F)cc2)c1; 1.61
Nc1ccc2oc(-c3cccc(C(F)(F)F)c3)cc(=O)c2c1; 2.14
CC(=O)Nc1ccc2oc(-c3ccccc3)cc(=O)c2c1; 2.26
COc1ccc(-c2cc(=O)c3cc(NC(C)=O)ccc3o2)cc1; 2.35
Nc1ccc2oc(-c3ccccc3F)c(O)c(=O)c2c1; 1.65

Reported log10(CC50 at 96 h) of "CC(=O)Nc1ccc2oc(-c3cccc(C(F)(F)F)c3)cc(=O)c2c1" : 1.00

Reported log10(CC50 at 96 h) of "CC(=O)Nc1ccc(O)c(C(=O)/C=C/c2ccccc2)c1" : 1.69

Reported log10(CC50 at 96 h) of "COc1ccccc1-c1cc(=O)c2cc(N)ccc2o1" : 2.30

Reported log10(CC50 at 96 h) of "CC(=O)Nc1ccc(O)c(C(=O)/C=C/c2ccc(C(F)(F)F)cc2)c1" : 1.32

Reported log10(CC50 at 96 h) of "CC(=O)Nc1ccc(O)c(C(=O)/C=C/c2ccccc2F)c1" : 1.53

Reported log10(CC50 at 96 h) of "CC(=O)Nc1ccc(O)c(C(=O)/C=C/c2cccc(C(F)(F)F)c2)c1" : 1.51

* * *

system: Plasmodium falciparum; test: Antiplasmodial activity against chloroquine-resistant Plasmodium falciparum W2 infected in human A+ erythrocytes assessed as inhibition of parasite proliferation after 48 hrs; type: functional, organism-based; conditions: W2, 48 h
A collection of molecules and their measured IC50

As a guide, the following entries are already answered.
COc1cccc(-c2cc(=O)c3cc(NC(C)=O)ccc3o2)c1; > 10 µM
COc1c(-c2cccc(C(F)(F)F)c2)oc2ccc(NC(C)=O)cc2c1=O; 19 µM
COc1c(-c2cccc(F)c2)oc2ccc(N)cc2c1=O; > 34 µM
COc1cccc(-c2oc3ccc(N)cc3c(=O)c2OC)c1; 13 µM
CC(=O)Nc1ccc2oc(-c3cccc(C(F)(F)F)c3)cc(=O)c2c1; 50 µM

Reported IC50 of "CC(=O)Nc1ccc(O)c(C(=O)/C=C/c2ccc(F)cc2)c1" : 16.9 µM

* * *

A collection of compounds and their measured CC50 at 96 h
assay: Cytotoxicity against human MT4 cells after 4 days by MTT assay; format: cell-based
Lab book: enter the figure in µM, no units written.

As a guide, the following entries are already answered.
COc1cccc(-c2oc3ccc(NC(C)=O)cc3c(=O)c2OC)c1; 369
COc1ccccc1-c1oc2ccc(NC(C)=O)cc2c(=O)c1O; 385
CC(=O)Nc1ccc(O)c(C(=O)/C=C/c2cccc(F)c2)c1; 30.1
COc1c(-c2cccc(C(F)(F)F)c2)oc2ccc(NC(C)=O)cc2c1=O; 201

Next up:
Reported CC50 at 96 h of "COc1ccc(-c2oc3ccc(NC(C)=O)cc3c(=O)c2O)cc1" : 98.7

* * *

A collection of compounds and their measured Selectivity Index
assay: Selectivity index, ratio of CC50 for human MT4 cells to IC50 for HIV1 3B; assay type: functional
Reply with just the number.

COc1ccccc1-c1cc(=O)c2cc(N)ccc2o1; 2.3

Reported Selectivity Index of "COc1c(-c2ccccc2F)oc2ccc(N)cc2c1=O" : 5.2

Reported Selectivity Index of "COc1c(-c2cccc(C(F)(F)F)c2)oc2ccc(N)cc2c1=O" : 1.5

Reported Selectivity Index of "Nc1ccc2oc(-c3cccc(F)c3)cc(=O)c2c1" : 4.4

* * *

tested on: Plasmodium falciparum; assay: Antiplasmodial activity against chloroquine-resistant Plasmodium falciparum W2 infected in human A+ erythrocytes assessed as inhibition of parasite proliferation after 48 hrs; type: functional, organism-based; details: W2, 48 h
A collection of compounds and their measured IC50

As a guide, the following entries are already answered.
COc1cccc(-c2cc(=O)c3cc(N)ccc3o2)c1; 31 µM
CC(=O)Nc1ccc2oc(-c3ccc(C(F)(F)F)cc3)c(O)c(=O)c2c1; > 50 µM
CC(=O)Nc1ccc2oc(-c3ccccc3F)cc(=O)c2c1; 40 µM

Reported IC50 of "COc1ccccc1/C=C/C(=O)c1cc(NC(C)=O)ccc1O" : 13.4 µM

Reported IC50 of "CC(=O)Nc1ccc2oc(-c3cccc(C(F)(F)F)c3)c(O)c(=O)c2c1" : > 1 µM

Reported IC50 of "Nc1ccc2oc(-c3ccc(C(F)(F)F)cc3)c(O)c(=O)c2c1" : > 50 µM

Reported IC50 of "COc1c(-c2cccc(F)c2)oc2ccc(NC(C)=O)cc2c1=O" : 49 µM

* * *

system: Plasmodium falciparum; assay: Antiplasmodial activity against chloroquine-resistant Plasmodium falciparum W2 infected in human A+ erythrocytes assessed as inhibition of parasite proliferation after 48 hrs; type: functional, organism-based; conditions: W2, 48 h
METRIC: pIC50
Expect pIC50 as a plain number equal to -log10 of the molar concentration.

As a guide, the following entries are already answered.
COc1ccccc1-c1oc2ccc(NC(C)=O)cc2c(=O)c1OC; 4.80
COc1ccc(/C=C/C(=O)c2cc(NC(C)=O)ccc2O)cc1; 5.17

Reported pIC50 of "COc1c(-c2ccc(F)cc2)oc2ccc(N)cc2c1=O" : 4.48

* * *

tested on: Human immunodeficiency virus 1; test: Antiviral activity against HIV1 3B infected in human MT4 cells assessed as inhibition of virus-induced cytopathic effect after 4 days by MTT assay; type: functional, organism-based; settings: Human immunodeficiency virus 1, 3B, MT4, 96 h
pIC50: −log10 of the molar value.
Response key: T means pIC50 >= 4; F means pIC50 < 4.

Solved entries (count: 5):
Cc1ccnc2c1NC(=O)c1cccnc1N2C1CC1 [NEVIRAPINE]; T
COc1cccc(-c2oc3ccc(N)cc3c(=O)c2OC)c1; F
CC(=O)Nc1ccc2oc(-c3cccc(C(F)(F)F)c3)cc(=O)c2c1; T
COc1c(-c2ccc(C(F)(F)F)cc2)oc2ccc(NC(C)=O)cc2c1=O; F
COc1ccccc1-c1oc2ccc(NC(C)=O)cc2c(=O)c1O; F

Query: Given "COc1c(-c2ccccc2F)oc2ccc(NC(C)=O)cc2c1=O" , state whether its pIC50 is at least 4.
Reply: F

Query: Given "CC(=O)Nc1ccc(O)c(C(=O)/C=C/c2cccc(C(F)(F)F)c2)c1" , state whether its pIC50 is at least 4.
Reply: T

Query: Given "COc1ccccc1-c1oc2ccc(NC(C)=O)cc2c(=O)c1OC" , state whether its pIC50 is at least 4.
Reply: F

Query: Given "COc1cccc(-c2oc3ccc(N)cc3c(=O)c2O)c1" , state whether its pIC50 is at least 4.
Reply: T

Query: Given "CC(=O)Nc1ccc2oc(-c3ccccc3)c(O)c(=O)c2c1" , state whether its pIC50 is at least 4.
Reply: T

Query: Given "Nc1ccc2oc(-c3ccccc3F)c(O)c(=O)c2c1" , state whether its pIC50 is at least 4.
Reply: T

Query: Given "COc1cccc(-c2cc(=O)c3cc(N)ccc3o2)c1" , state whether its pIC50 is at least 4.
Reply: F
